Experiment: plasma and tissue concentrations after oral administration to the rat (HPLC)
Assay type: in vivo
Details: rat, 50 mg/kg oral, kidney, 15 hours after treatment; read-out: Kidney concentration
Procedure: The compound (X) was administered orally at a dose of 50 mg/kg to the rat after which the plasma, tissue and urine concentrations were evaluated by the HPLC method, as described hereinafter. The plasma and tissues (heart, kidney and liver) were withdrawn from groups of 3 female rats at various times after oral administration. […]

- MOLECULE: "CC1Cn2cc(C(=O)O)c(=O)c3cc(F)c(N4CCN(C)CC4)c(c32)S1 (stereo not shown) [(X)]"
  concentration at 15 h: "5900 ng/g"

====

experiment: plasma and tissue concentrations after oral administration to the rat (HPLC); assay type: in vivo; conditions: rat, 50 mg/kg oral, heart, 4 hours after treatment; read-out: Heart concentration
TEST READOUT: concentration at 4 h (ng/g)

- COMPOUND: "CC1Cn2cc(C(=O)O)c(=O)c3cc(F)c(N4CCN(C)CC4)c(c32)S1 (stereo not shown)"
  TEST READOUT: "concentration at 4 h"
  MEASURED: 18600

====

Assay: plasma and tissue concentrations after oral administration to the rat (HPLC)
Format: in vivo
Details: rat, 50 mg/kg oral, plasma, 15 hours after treatment; read-out: Plasma concentration
Experimental: The compound (X) was administered orally at a dose of 50 mg/kg to the rat after which the plasma, tissue and urine concentrations were evaluated by the HPLC method, as described hereinafter. The plasma and tissues (heart, kidney and liver) were withdrawn from groups of 3 female rats at various times after oral administration. […]
TEST READOUT: concentration at 15 h (ng/mL)

- COMPOUND: "CC1Cn2cc(C(=O)O)c(=O)c3cc(F)c(N4CCN(C)CC4)c(c32)S1 (stereo not shown) [(X)]"
  MEASURED: 3500
